Origin of values: the supplement of paper PMC6555819

Tested on: RARb homodimer (NR concentration 270 nM)
experiment: PBM binding z-score (relative to random genomic background probes); higher = stronger binding; sequences stand for … in GC…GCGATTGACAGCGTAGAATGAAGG
# class assignment by measured PBM binding z-score: bin 0: < 1; bin 1: ≥ 1 and < 2; bin 2: ≥ 2

// known answers, use as guide
primarySequence: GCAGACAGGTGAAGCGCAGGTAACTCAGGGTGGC
classAssignment: bin 0
//
primarySequence: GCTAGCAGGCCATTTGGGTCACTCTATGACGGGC
classAssignment: bin 1
//
primarySequence: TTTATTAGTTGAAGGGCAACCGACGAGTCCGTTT
classAssignment: bin 1
//
primarySequence: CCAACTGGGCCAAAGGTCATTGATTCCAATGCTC
classAssignment: bin 2
//
primarySequence: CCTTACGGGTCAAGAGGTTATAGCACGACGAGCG
classAssignment: bin 2
//
primarySequence: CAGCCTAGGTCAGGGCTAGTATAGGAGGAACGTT
classAssignment: bin 2
//
primarySequence: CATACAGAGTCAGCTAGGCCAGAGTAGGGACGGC
classAssignment: bin 0
//
primarySequence: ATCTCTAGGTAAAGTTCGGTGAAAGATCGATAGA
classAssignment: bin 0

**Q:** Classify this sequence: `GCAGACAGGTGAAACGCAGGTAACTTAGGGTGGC`
**A:** bin 0

**Q:** Classify this sequence: `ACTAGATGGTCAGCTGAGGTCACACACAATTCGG`
**A:** bin 2

**Q:** Classify this sequence: `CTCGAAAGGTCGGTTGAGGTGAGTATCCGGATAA`
**A:** bin 2

**Q:** Classify this sequence: `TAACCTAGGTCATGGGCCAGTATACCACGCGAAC`
**A:** bin 2

**Q:** Classify this sequence: `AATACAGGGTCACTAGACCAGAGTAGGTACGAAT`
**A:** bin 2

**Q:** Classify this sequence: `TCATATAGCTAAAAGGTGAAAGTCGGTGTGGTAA`
**A:** bin 1

**Q:** Classify this sequence: `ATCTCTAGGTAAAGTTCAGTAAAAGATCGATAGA`
**A:** bin 2

**Q:** Classify this sequence: `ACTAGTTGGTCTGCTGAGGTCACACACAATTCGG`
**A:** bin 2

**Q:** Classify this sequence: `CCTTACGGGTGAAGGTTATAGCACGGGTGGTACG`
**A:** bin 0

**Q:** Classify this sequence: `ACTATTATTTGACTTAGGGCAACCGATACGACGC`
**A:** bin 1

**Q:** Classify this sequence: `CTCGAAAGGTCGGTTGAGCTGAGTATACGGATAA`
**A:** bin 1

**Q:** Classify this sequence: `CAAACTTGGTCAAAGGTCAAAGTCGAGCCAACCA`
**A:** bin 2

**Q:** Classify this sequence: `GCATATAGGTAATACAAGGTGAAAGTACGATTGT`
**A:** bin 0

**Q:** Classify this sequence: `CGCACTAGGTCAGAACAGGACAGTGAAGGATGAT`
**A:** bin 2
